The measurements presented in this section are drawn from BindingDB's records for doi:10.1021/jm00105a061.

Assay: Compound was evaluated for its binding affinity against opioid receptor delta subtype in guinea pig brain (minus cerebellum) using [3H]-DADLE as radioligand.
READOUT_LABEL: Ki

Query block: What value of measured Ki is listed for O=C(Cc1ccc(O)cc1)N1CCCCC1CN1CCCC1 (configuration not stated) ?
Result block: > 10 µM

Query block: What value of measured Ki is listed for CN1CCCC1C1CCCCN1C(=O)Cc1ccc(Cl)c(Cl)c1 (configuration not stated) ?
Result block: > 10 µM
